target: fusion protein from the PR-ligand-binding domain and a Gal4-transactivation domain (Homo sapiens, UniProt P06401); construct: expressed in transfected cells; host or cells: CHO K1 cells, stably transfected; assay: Progestational action by transactivation test (CHO K1 reporter cells); type: cell-based; details: CHO-K1, 16 h, read-out: Progesterone receptor Agonism efficacy
Sequence (P06401 679-913 limits assumed): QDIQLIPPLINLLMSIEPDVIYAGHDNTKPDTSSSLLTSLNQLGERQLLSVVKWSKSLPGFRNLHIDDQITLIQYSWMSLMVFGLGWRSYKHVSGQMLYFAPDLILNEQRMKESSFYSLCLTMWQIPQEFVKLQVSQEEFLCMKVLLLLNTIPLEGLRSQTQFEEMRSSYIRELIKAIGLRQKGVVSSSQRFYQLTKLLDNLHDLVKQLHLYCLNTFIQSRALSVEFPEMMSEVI
Sequence (P04386 1-147 partner limits assumed): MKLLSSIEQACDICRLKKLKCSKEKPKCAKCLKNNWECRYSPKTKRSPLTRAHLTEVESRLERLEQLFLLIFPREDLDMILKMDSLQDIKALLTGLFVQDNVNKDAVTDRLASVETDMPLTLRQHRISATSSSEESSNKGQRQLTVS
A collection of compounds and their measured Emax
Could you give me the number in %? Just the number is fine.

CC[C@]12CC[C@H]3[C@H]([C@@H]1[C@@H]1C[C@@H]1[C@@]21C=CC(=O)O1)[C@H](C1CC1)CC1=CC(=O)CC[C@@H]13: 5
C[C@]12CC[C@H]3[C@@H](CCC4=C(Cl)C(=O)CC[C@@H]43)[C@@H]1[C@@H]1C[C@@H]1[C@@]21C=CC(=O)O1: 49.6
CC[C@@H]1CC2=CC(=O)CC[C@@H]2[C@H]2CC[C@@]3(C)[C@@H]([C@@H]4C[C@@H]4[C@@]34C=CC(=O)O4)[C@H]12 [Example 24A]: 42.7
C[C@]12CC[C@H]3[C@H]([C@@H]1[C@H]1C[C@H]1[C@@]21C=CC(=O)O1)[C@H](C1CC1)CC1=CC(=O)CC[C@@H]13 [Example 17A]: 71.8
CC[C@]12CC[C@H]3[C@@H](C=CC4=CC(=O)CC[C@@H]43)[C@@H]1[C@@H]1C[C@@H]1[C@@]21C=CC(=O)O1: 34.2

Inquiry: Retrieve Emax measured for C=C[C@@H]1CC2=CC(=O)CC[C@@H]2[C@H]2CC[C@@]3(CC)[C@@H]([C@@H]4C[C@@H]4[C@@]34C=CC(=O)O4)[C@@H]21 and print it.
Reply text: 35.2

Inquiry: # return recorded Emax for entry C=C[C@@H]1CC2=CC(=O)CC[C@@H]2[C@H]2CC[C@@]3(C)[C@@H]([C@H]4C[C@H]4[C@@]34C=CC(=O)O4)[C@@H]21 [Example 16A]
Reply text: 59.3

Inquiry: Identify the reported Emax for the following entry. C=C[C@@H]1CC2=CC(=O)CC[C@@H]2[C@H]2CC[C@@]3(C)[C@@H]([C@@H]4C[C@@H]4[C@@]34C=CC(=O)O4)[C@@H]21 [Example 25A]
Reply text: 46.5

Inquiry: # return recorded Emax for input C[C@]12CCC(=O)C=C1[C@@H]1C[C@@H]1[C@H]1[C@@H]3[C@@H]4C[C@@H]4[C@@]4(CCC(=O)O4)[C@@]3(C)CC[C@@H]12 [A, reference compound]
Reply text: 72.2

Inquiry: Tell us which Emax value is on record for C[C@]12CC[C@H]3[C@@H](CC4(CC4)C4=CC(=O)CC[C@@H]43)[C@@H]1[C@@H]1C[C@@H]1[C@@]21C=CC(=O)O1
Reply text: 126

* * *

Here the recorded Emax is given for each entry.
Target: mineralocorticoid receptor (Homo sapiens, UniProt P08235)
Sequence (P08235 1-984): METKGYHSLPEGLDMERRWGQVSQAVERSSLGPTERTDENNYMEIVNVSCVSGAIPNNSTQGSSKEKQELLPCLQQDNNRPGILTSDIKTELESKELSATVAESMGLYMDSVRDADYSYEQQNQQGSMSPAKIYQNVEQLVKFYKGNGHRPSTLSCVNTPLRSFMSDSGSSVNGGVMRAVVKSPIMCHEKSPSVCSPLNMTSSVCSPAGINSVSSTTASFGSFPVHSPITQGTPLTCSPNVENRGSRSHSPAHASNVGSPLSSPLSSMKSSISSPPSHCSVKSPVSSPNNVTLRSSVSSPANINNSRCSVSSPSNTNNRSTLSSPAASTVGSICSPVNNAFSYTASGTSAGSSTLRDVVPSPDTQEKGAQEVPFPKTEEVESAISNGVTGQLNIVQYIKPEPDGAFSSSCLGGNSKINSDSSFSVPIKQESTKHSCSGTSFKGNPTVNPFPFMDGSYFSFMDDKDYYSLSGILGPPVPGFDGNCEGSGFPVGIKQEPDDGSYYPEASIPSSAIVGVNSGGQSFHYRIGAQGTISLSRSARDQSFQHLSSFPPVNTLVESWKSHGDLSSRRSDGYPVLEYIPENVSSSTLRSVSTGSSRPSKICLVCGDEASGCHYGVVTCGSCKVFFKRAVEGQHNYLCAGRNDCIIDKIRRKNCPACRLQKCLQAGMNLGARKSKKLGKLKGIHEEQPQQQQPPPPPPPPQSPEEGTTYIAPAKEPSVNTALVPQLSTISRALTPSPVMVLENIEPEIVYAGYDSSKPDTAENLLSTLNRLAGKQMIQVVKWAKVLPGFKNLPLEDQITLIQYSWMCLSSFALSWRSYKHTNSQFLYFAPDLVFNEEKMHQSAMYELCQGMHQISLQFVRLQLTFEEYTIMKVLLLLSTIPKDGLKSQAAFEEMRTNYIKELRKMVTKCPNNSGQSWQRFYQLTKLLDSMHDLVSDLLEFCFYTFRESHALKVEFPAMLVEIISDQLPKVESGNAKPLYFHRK
Test: Antimineralocorticoid action by transactivation test (MDCK reporter cells);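 also: percent inhibition of the aldosterone-stimulated reporter signal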
Format: cell-based
Design: expressed in transfected cells; host or cells: MDCK cells
Details: MDCK cells, with 1 nM aldosterone; read-out: Mineralocorticoid receptor Antagonism efficacy
Hi! Could you send only the number? It should be in %, unit omitted.

Here's what some known entries look like.
CC[C@]12CC[C@H]3[C@@H](C[C@@H](CO)C4=CC(=O)CC[C@@H]43)[C@@H]1[C@@H]1C[C@@H]1[C@@]21C=CC(=O)O1: 92.7
C[C@]12CC[C@H]3[C@@H](C=CC4=CC(=O)CC[C@@H]43)[C@@H]1[C@H]1C[C@H]1[C@@]21C=CC(=O)O1: 116
CC[C@]12CC[C@H]3[C@@H]([C@H]4C[C@H]4C4=C(Cl)C(=O)CC[C@@H]43)[C@@H]1[C@@H]1C[C@@H]1[C@@]21C=CC(=O)O1: 31.1

# evaluate next
Inquiry: Consider the compound C[C@]12CC[C@H]3[C@@H](C[C@@H](CO)C4=CC(=O)CC[C@@H]43)[C@@H]1[C@@H]1C[C@@H]1[C@@]21C=CC(=O)O1 . State its measured Emax.
Reply text: 68
